Experiment: in vitro
Conditions: human, hek293t cells
So I've got a bunch of compounds here, and I need their viability at 48 h, 25 µM values.
Write down the numeric answer in % and omit the unit.

Lookup: Entry under review: CCc1cccc2c(C(=O)CCl)c[nH]c12 [10-C12] . Reported viability at 48 h, 25 µM?
Found: 0.148

Lookup: Here is the next compound: CN(C)S(=O)(=O)c1ccc(NC(=O)CCl)cc1 [5-J11]
Found: 1.08

Lookup: Here is the next compound: C=CC(=O)Nc1c(C)cnn1CC1CC1 [1-M19]
Found: 94.9

Lookup: Here is the next compound: Cc1c(C#N)c(NC(=O)CCl)n(Cc2ccc(F)cc2)c1C [4-O21]
Found: 0.102

Lookup: Here is the next compound: O=C1C=CC(=O)N1c1ccc(SC(F)F)cc1 [10-A18]
Found: 3.22

Lookup: Here is the next compound: CC(Cl)C(=O)NCCN1C(=O)CSC1=O (stereo not drawn) [5-M03]
Found: 87.2

Lookup: Here is the next compound: C=CC(=O)N[C@@H](CC(N)=O)c1cccc(Cl)c1 [1-I15]
Found: 81.6

Lookup: Here is the next compound: C=CC(=O)NCc1cnoc1C [3-C22]
Found: 51.5

Lookup: Here is the next compound: C=CC(=O)N1CCCCC1Cn1ccnn1 (stereo not drawn) [2-K07]
Found: 89.3

Lookup: Here is the next compound: C=CC(=O)Nc1ccc(N(C)S(=O)(=O)CC)cc1 [3-H06]
Found: 87.8

Lookup: Here is the next compound: C=CC(=O)NCc1cc(Cl)c2c(c1)OCCO2 [1-L05]
Found: 112

Lookup: Here is the next compound: O=C(Nc1cccc(-c2nnco2)c1)N1CCSSCC1 [10-P09]
Found: 116

###

So I've got a bunch of compounds here, and I need their viability at 48 h, 25 µM values.
Experiment: in vitro
Settings: human, hek293t cells
Write down the numeric answer in % and omit the unit.

Lookup: Entry under review: C=CC(=O)NC(Cn1ccnc1)c1ccccc1 (stereo not drawn) [2-M06] . Reported viability at 48 h, 25 µM?
Found: 84.5

Lookup: Here is the next compound: Cc1ccc(C=C(C#N)C(=O)Nc2nccs2)o1 [9-P10]
Found: 126

Lookup: Here is the next compound: N#CC(=Cc1ccc(N2CCCCCC2)cc1)C(=O)NCC1CCCO1 (stereo not drawn) [9-H15]
Found: 71.9

Lookup: Here is the next compound: O=C(CCl)NC(c1ccccc1)c1cccs1 (stereo not drawn) [4-J14]
Found: 1.95

Lookup: Here is the next compound: O=C(CCl)NCc1coc(Cl)n1 [6-B04]
Found: 106

Lookup: Here is the next compound: COc1ccccc1N=Nc1ccc(NC(=O)CCl)cc1C [6-J06]
Found: 0.765

###

Test: in vitro
Conditions: human, hek293t cells
So I've got a bunch of molecules here, and I need their viability at 48 h, 25 µM values.
Could you give the number and then its unit, please?

Lookup: Entry under review: CC(Cl)C(=O)Nc1c(Cl)cc(Cl)cc1Cl (centres unmarked) . Reported viability at 48 h, 25 µM?
Found: 115%

Lookup: Here is the next molecule: `O=C(CCl)NCc1cnn(-c2ccccc2)n1`
Found: 1.68%

Lookup: Here is the next molecule: CC(Cl)C(=O)Nc1ccccc1Sc1ccccc1 (centres unmarked)
Found: 116%

Lookup: Here is the next molecule: C=CC(=O)N1CCCCC1c1noc(C2CC2)n1 (centres unmarked)
Found: 105%

Lookup: Here is the next molecule: `C=CC(=O)NC1CN(S(=O)(=O)c2ccc3c(c2)OCCO3)C1`
Found: 79.7%

Lookup: Here is the next molecule: `COc1cc(C=C(C#N)C(=O)NC(C)C)cc(OC)c1`
Found: 82.4%

Lookup: Here is the next molecule: C=CC(=O)NC1CCC(c2nc(CC)no2)CC1 (centres unmarked)
Found: 92.2%

Lookup: Here is the next molecule: C=CC(=O)N1CCC(S(=O)(=O)NC(C)C)C1 (centres unmarked)
Found: 218%

Lookup: Here is the next molecule: CC(Cl)C(=O)Nc1cccc(-c2ncc3n2CCCC3)c1 (centres unmarked)
Found: 95.8%

Lookup: Here is the next molecule: `C=CC(=O)NCc1ccnn1CC(F)(F)F`
Found: 168%

Lookup: Here is the next molecule: CC(Cl)C(=O)NC1CC(C)N(c2ccccc2)C1 (centres unmarked)
Found: 99.3%

Lookup: Here is the next molecule: `C=CC(=O)N1CCC(c2nnc(C)o2)CC1`
Found: 87.3%

Lookup: Here is the next molecule: `C=CC(=O)NCc1ccc(C(=O)N2CCC(C#N)CC2)cc1`
Found: 46.3%

Lookup: Here is the next molecule: `O=C(Nc1ccc(F)cc1)N1CCSSCC1`
Found: 84%

Lookup: Here is the next molecule: O=C(CCl)NC(CC1CC1)c1ccc(Cl)cn1 (centres unmarked)
Found: 1.46%

Lookup: Here is the next molecule: `Cc1nn(-c2ccccc2)c(Cl)c1C=C(C#N)C(=O)NC(C)C`
Found: 98.2%

Lookup: Here is the next molecule: CC(Cl)C(=O)Nc1ccc2c(c1)C(=O)c1ccccc1C2=O (centres unmarked)
Found: 58.6%

Lookup: Here is the next molecule: `COc1ccc(CCN2C(=O)C=CC2=O)cc1OC`
Found: 101%

Lookup: Here is the next molecule: C=CC(=O)NC1CCS(=O)(=O)C(C)C1 (centres unmarked)
Found: 68.8%

Lookup: Here is the next molecule: `CNC(=O)C(C#N)=Cc1cccc(C)c1C`
Found: 112%

Lookup: Here is the next molecule: `O=C(CCl)N(Cc1ccoc1)C1CCCCC1`
Found: 0.638%

Lookup: Here is the next molecule: `C=CC(=O)Nc1ccnn1C1CCCC1`
Found: 24%

Lookup: Here is the next molecule: COCC(NC(=O)C(C)Cl)c1cccc(C#N)c1 (centres unmarked)
Found: 107%

Lookup: Here is the next molecule: `CC(=Cc1ccccc1)C=C(C#N)C(=O)Nc1nccs1`
Found: 84.2%

Lookup: Here is the next molecule: `N#CC(C(=O)CCl)=C1Nc2ccccc2S1`
Found: 0.855%

Lookup: Here is the next molecule: C=CC(=O)N1CCCCC1CNC(C)=O (centres unmarked)
Found: 186%

Lookup: Here is the next molecule: C=CC(=O)NC(CO)c1nc(C)no1 (centres unmarked)
Found: 71.4%

Lookup: Here is the next molecule: `N#CC(=Cc1ccc([N+](=O)[O-])c(Cl)c1)C(=O)NCc1ccccc1`
Found: 1.37%

Lookup: Here is the next molecule: C=CC(=O)N(CC)CC(=O)N1CCCC1c1cn(C)nc1C (centres unmarked)
Found: 85.2%

Lookup: Here is the next molecule: `Cc1ccc2sc(N(Cc3ccccc3)C(=O)CCl)nc2c1C`
Found: -0.0749%

Lookup: Here is the next molecule: `O=C(CCl)NCCc1cccs1`
Found: 90.7%

Lookup: Here is the next molecule: `C=CC(=O)N1CC(n2nc(C)cc2C)C1`
Found: 77.4%

Lookup: Here is the next molecule: CC(NC(=O)C(C#N)=Cc1cccc(Cl)c1Cl)c1ccccc1 (centres unmarked)
Found: 3.94%

Lookup: Here is the next molecule: O=C(CCl)NCC1CCCCN1C(=O)C(F)(F)F (centres unmarked)
Found: 1.83%

Lookup: Here is the next molecule: `C=CC(=O)Nc1ccc2c(c1)OCCCO2`
Found: 115%

Lookup: Here is the next molecule: CCN1C(=O)CC[C@H](CNC(=O)C(C)Cl)[C@H]1c1cnn(C)c1 (mixture of isomers)
Found: 100%

Lookup: Here is the next molecule: `Cc1cc(C)c(-c2csc(NC(=O)CCl)n2)cc1C`
Found: 0.339%

Lookup: Here is the next molecule: `C=CC(=O)NC1CCN(S(N)(=O)=O)CC1`
Found: 93.7%

Lookup: Here is the next molecule: `O=C(CCl)Nc1ccc(Oc2cccc(Cl)c2)cc1`
Found: 0.765%

Lookup: Here is the next molecule: `O=C(CCl)Nc1ccccn1`
Found: 73.1%

Lookup: Here is the next molecule: `O=C(CCl)Nc1cc(S(=O)(=O)N2CCCCC2)ccc1Cl`
Found: 0.505%

Lookup: Here is the next molecule: `C=CC(=O)N(Cc1ccc2c(c1)CCC2)Cc1c(C)noc1C`
Found: 92.1%

Lookup: Here is the next molecule: `C=CC(=O)N1CC(c2ncon2)C1`
Found: 181%

Lookup: Here is the next molecule: C=CC(=O)N1CCC(C(=O)NCCC2CCS(=O)(=O)C2)CC1 (centres unmarked)
Found: 78.2%

Lookup: Here is the next molecule: `C=CC(=O)N1CCOC2(CCCC2)C1`
Found: 44.3%

Lookup: Here is the next molecule: Cc1noc(C)c1COC1CCN(C(=O)C(C)Cl)C1 (centres unmarked)
Found: 90.9%

Lookup: Here is the next molecule: `C=CC(=O)N(CC)CC(=O)N1CCn2c(nc(C)c2C)C1`
Found: 94.8%

Reference source for all entries: paper PMC11995724
